# Test system: VSV-G pseudotyped HIV-1-Luc in wild type HEK293T cells
# method: microbe, parasite or virus in culture
# Type: cell-based
# assay-conditions: Human immunodeficiency virus 1, HEK-293T, read-out: EC50, WT producer cells
assay-metric: EC50

Exercise: Fill blank: measured EC50 of the compound Cc1nc(-c2nc3ccc(Cl)cc3[nH]2)c(C)c(-c2ccccc2)c1C(OC(C)(C)C)C(=O)O (stereo not shown) is ____.
Key: ~69 nM

----------
# Tested on: HIV-1NL4-3
# method: microbe, parasite or virus in culture
# Assay type: cell-based
# assay-conditions: Human immunodeficiency virus 1, read-out: EC50, Full Replication Cycle, KF116 added to both producer and target cells; mean ± SD, three experiments
assay-metric: EC50
Answer with the number, then the unit.

Exercise: Name the recorded EC50 for Cc1nc(-c2nc3ccc(Cl)cc3[nH]2)c(C)c(-c2ccccc2)c1C(OC(C)(C)C)C(=O)O (stereo not shown) .
Key: 24 nM

----------
# system-under-test: HIV-1 IN (Human immunodeficiency virus type 1 group M subtype B)
# method: biochemical
assay-metric: EC50 (nM)
One number for each entry, in nM.

# compound, units, EC50
rows = [
    ("Cc1nc(-c2nc3ccc(Cl)cc3[nH]2)c(C)c(-c2ccccc2)c1C(OC(C)(C)C)C(=O)O (centres unmarked)", "nM", 86),
]

Exercise: I am curious: what EC50 value has been reported for Cc1ccc(-c2nc(C)c(C(OC(C)(C)C)C(=O)O)c(-c3ccc(Cl)cc3)c2C)cc1C (centres unmarked) ?
Key: 274

----------
# system-under-test: IN-LEDGF/p75 (Human immunodeficiency virus type 1 group M subtype B, UniProt P12497)
# method: HTRF-based IN-LEDGF/p75 binding assay
# Parameters: species or system HIV-1
assay-metric: pIC50
Give bare numbers, as −log10 of the molar value.

# compound, observed-value
measured = [
    ("Cc1nc(-c2nc3ccc(Cl)cc3[nH]2)c(C)c(-c2ccccc2)c1C(OC(C)(C)C)C(=O)O (centres unmarked) [KF116]", 5.30),
]

Exercise: Can you share its pIC50? I mean this compound: Cc1ccc(-c2nc(C)c(C(OC(C)(C)C)C(=O)O)c(-c3ccc(Cl)cc3)c2C)cc1C (centres unmarked) [KF115]
Key: 4.89

----------
# System: HIV-1
# method: Antiviral assay, early stage (inhibitor added to target cells)
# Type: cell-based
# assay-conditions: Human immunodeficiency virus 1, read-out: EC50, Early Stage, target cells, inhibitor added to target cells, untreated virions; called IC50
assay-metric: EC50 (µM)
Answers are plain numbers, in µM.

Exercise: So what does the record say about EC50 for Cc1nc(-c2nc3ccc(Cl)cc3[nH]2)c(C)c(-c2ccccc2)c1C(OC(C)(C)C)C(=O)O (stereo not shown) [KF116] ?
Key: 50.9
